Target: T1, Bicoid DBD-GST (Bcd) (UniProt P09081 83-170)
T1 sequence: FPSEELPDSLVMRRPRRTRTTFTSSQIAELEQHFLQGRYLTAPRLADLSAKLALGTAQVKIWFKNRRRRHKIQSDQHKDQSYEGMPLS
Experiment: competitive fluorescence anisotropy (HiP-FA); mean of replicates 4.834, 5.5235; HiP-FA: 33 mM phosphate pH 7.0, 90 mM NaCl, 0.01% Tween 20, 0.1 mM DTT, 0.5% agarose; conventional titration and EMSA: 20 mM Tris-acetate pH 7.0, 50 nM (sic) NaCl, 0.01% Tween-20, 0.1 mM DTT
Conditions: protein: recombinant; tags: N-terminal GST; blunt, G:G mismatch at position 6
ENDPOINT LABEL: Kd
Note to self: number, then unit, no commentary.

Given Bcd competitor 30 (C10A) (dsDNA) DNA 1: TCGACGGTAATCCATA DNA 2: TATGGATTACGGTCGA , respond with its Kd.
5.18 nM
